Measured values drawn from patent US20050153976A1 for this set.

Experiment: Solubility of the compound in aqueous media and in organic solvents
Type: physicochemical
Conditions: organic solvent or mixture; in both ethanol and methanol
OBSERVED_PROPERTY: solubility

Reported solubility of CC(=O)N1CCC(CC(=O)N2CCN(C(c3ccccc3)c3ccc(OC(F)(F)F)cc3)C[C@@H]2C(C)(C)C)CC1 (stereo partly shown) : > 150 mg/mL

====

Experiment: pKa and log P of the compound of formula I
Assay type: physicochemical
OBSERVED_PROPERTY: logP

Input CC(=O)N1CCC(CC(=O)N2CCN(C(c3ccccc3)c3ccc(OC(F)(F)F)cc3)C[C@@H]2C(C)(C)C)CC1 (stereo partly shown) [Compound of Formula I] . Output logP: 3

====

Assay: In-vivo pharmacokinetic (PK) studies
Design: species or system rats and dogs
Details: in vivo; Dose 10 mg/kg
OBSERVED_PROPERTY: Tmax (h)
The reply should be a number in h, with the unit left off.

So for CC(=O)N1CCC(CC(=O)N2CCN(C(c3ccccc3)c3ccc(OC(F)(F)F)cc3)C[C@@H]2C(C)(C)C)CC1 (stereo partly shown) , the logged Tmax turned out to be 3.3
